So I've got a bunch of molecules here, and I need their IC50 values.
molecular target: proton pump (H+/K+-ATPase) (Sus scrofa, UniProt P19156); construct: used as an enzyme source of the in vitro enzyme reaction assay of proton pump; membrane vesicles, lyophilized; assay: Inhibitory effects on proton pump (H+/K+-ATPase) activity; settings: hog gastric vesicles, K+ stimulated H+/K+-ATPase activity, Pi at 620 nm, 30 minutes at 37° C.
Sequence (P19156 whole entry): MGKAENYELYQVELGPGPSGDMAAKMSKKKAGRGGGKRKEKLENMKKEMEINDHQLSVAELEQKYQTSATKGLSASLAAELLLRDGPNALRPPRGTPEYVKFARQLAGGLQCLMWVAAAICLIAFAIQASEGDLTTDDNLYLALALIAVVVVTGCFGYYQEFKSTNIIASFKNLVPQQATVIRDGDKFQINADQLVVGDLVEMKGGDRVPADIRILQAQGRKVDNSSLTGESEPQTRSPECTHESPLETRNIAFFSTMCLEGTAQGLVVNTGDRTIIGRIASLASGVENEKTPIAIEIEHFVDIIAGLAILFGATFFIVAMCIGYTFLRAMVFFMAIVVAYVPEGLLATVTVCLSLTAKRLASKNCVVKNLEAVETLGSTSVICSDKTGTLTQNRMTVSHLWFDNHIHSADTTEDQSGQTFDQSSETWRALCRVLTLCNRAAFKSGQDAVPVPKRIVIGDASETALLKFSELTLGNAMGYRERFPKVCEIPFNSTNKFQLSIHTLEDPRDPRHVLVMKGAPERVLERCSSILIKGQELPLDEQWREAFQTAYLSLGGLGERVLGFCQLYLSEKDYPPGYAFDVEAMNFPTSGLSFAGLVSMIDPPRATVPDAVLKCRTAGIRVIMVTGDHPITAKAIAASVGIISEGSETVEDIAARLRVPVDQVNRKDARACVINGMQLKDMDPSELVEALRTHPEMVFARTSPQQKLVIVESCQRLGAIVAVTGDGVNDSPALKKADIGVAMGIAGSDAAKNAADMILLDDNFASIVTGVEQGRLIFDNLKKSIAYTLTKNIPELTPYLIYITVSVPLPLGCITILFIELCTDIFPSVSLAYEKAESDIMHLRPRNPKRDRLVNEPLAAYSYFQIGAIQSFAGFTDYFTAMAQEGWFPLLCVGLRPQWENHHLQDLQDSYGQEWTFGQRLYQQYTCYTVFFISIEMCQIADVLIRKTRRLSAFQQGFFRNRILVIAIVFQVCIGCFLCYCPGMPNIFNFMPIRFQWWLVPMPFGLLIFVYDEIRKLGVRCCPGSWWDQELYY
Sequence (P18434 whole entry partner): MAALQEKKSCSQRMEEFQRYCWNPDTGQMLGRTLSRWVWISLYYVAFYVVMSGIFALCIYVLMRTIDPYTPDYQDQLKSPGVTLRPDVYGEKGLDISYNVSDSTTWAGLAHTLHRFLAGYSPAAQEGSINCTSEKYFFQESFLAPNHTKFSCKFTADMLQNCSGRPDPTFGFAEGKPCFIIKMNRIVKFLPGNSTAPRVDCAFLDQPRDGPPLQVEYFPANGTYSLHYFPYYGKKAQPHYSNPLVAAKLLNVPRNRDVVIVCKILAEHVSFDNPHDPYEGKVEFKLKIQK
Where a name gives a salt, the structure may show the parent alone.
One number for each entry, in µM.

Worked examples follow.
Cc1c(C)n(Cc2ccccc2Cl)c2c(OCc3ccc(F)cc3)cncc12 [Example 14, hydrochloride] = 0.46
COCCn1c(C)c(C)c2cncc(N3CCc4ccccc4C3)c21 [Example 31, hydrochloride] = 0.17
CCn1c(C)c(C)c2cncc(N3CCc4ccccc4C3)c21 [Example 40, hydrochloride] = 0.03

Noted for C#CCn1c(C)c(C)c2cncc(OCc3ccc(F)cc3)c21.Cl [Example 2, hydrochloride] : its IC50 reads 0.01
